assay: Tmax in Sprague-Dawley rat at 60 mg/kg, ip measured up to 24 hrs by LC-MS analysis; format: ADME, organism-based; settings: in vivo
Reported endpoint: Tmax (min)
Give just the number in min; leave the unit off.

Recorded result, COc1cc(Nc2ccccc2C(=O)NCCc2c[nH]c3ccccc23)cc(OC)c1OC , Tmax: 25.2

----------
tested on: U-251; assay: Antiproliferative activity against human U-251 cells assessed as growth inhibition incubated for 72 hrs by CCK-8 assay; type: functional, cell-based; details: U-251, 72 h
Give IC50 for every item shown.
Dear colleague, please return just the value in µM, with no unit written.

Tested on U-251, the item Cc1cncc(Nc2ccccc2C(=O)NCCc2c[nH]c3ccccc23)c1 showed IC50 equal to 24.4

Bench note, U-251: entry O=C(NCCc1c[nH]c2ccccc12)c1ccccc1Nc1cccc(Cl)c1 , its IC50 = 22.2

----------
tested on: U-251; test: Antiproliferative activity against human U-251 cells assessed as growth inhibition incubated for 72 hrs by CCK-8 assay; format: functional, cell-based; conditions: U-251, 72 h
Please note: IC50 exactly at 20 µM is no (0). Only values below 20 µM get yes (1).

Qu. Is it true that IC50 reported for CN(C)c1ccc(Nc2ccccc2C(=O)NCCc2c[nH]c3ccccc23)cc1 is less than 20 µM?
Ans. no (0)

Qu. Is it true that IC50 reported for COc1ccc2[nH]cc(CCNC(C)=O)c2c1 is less than 20 µM?
Ans. no (0)

Qu. Identify whether the compound COc1cc(Nc2ccccc2C(=O)NCCc2c[nH]c3ccccc23)cc(OC)c1OC records IC50 below 20 µM.
Ans. yes (1)

Qu. Is 20 µM strictly greater than the compound's reported IC50? compound: O=C(NCCc1c[nH]c2ccccc12)c1ccccc1Nc1cccc(Br)c1
Ans. no (0)

Qu. Report whether reported IC50 is lower than 20 µM (strictly) for O=C(NCCc1c[nH]c2ccccc12)c1ccccc1Nc1ccccc1F
Ans. no (0)

Qu. Lab note: confirm whether the reported IC50 for this compound is below 20 µM, equality not counting. compound: O=C(NCCc1c[nH]c2ccccc12)c1ccccc1Nc1cccnc1Cl
Ans. no (0)

Qu. Dear colleague, could you confirm whether IC50 of O=C(NCCc1c[nH]c2ccccc12)c1ccccc1Nc1ccc(Cl)cc1 falls below 20 µM? Thanks.
Ans. yes (1)

Qu. Field: below-cutoff. Rule: recorded IC50 strictly less than 20 µM. Subject: O=C(NCCc1c[nH]c2ccccc12)c1ccccc1Nc1ccc(Br)cc1
Ans. no (0)

Qu. IC50 strictly < 20 µM for this compound? O=C(NCCc1c[nH]c2ccccc12)c1ccccc1Nc1cccnc1
Ans. no (0)

Qu. In the record for O=C(NCCc1c[nH]c2ccccc12)c1ccccc1Nc1cccc2cccnc12 , is IC50 less than 20 µM?
Ans. no (0)

Qu. Consider O=C(NCCc1c[nH]c2ccccc12)c1ccccc1Nc1ccc2nccnc2c1 . Does its IC50 lie strictly below 20 µM?
Ans. no (0)

Qu. Hi there! Is IC50 for Nc1ccccc1Nc1ccccc1C(=O)NCCc1c[nH]c2ccccc12 below 20 µM, do you know?
Ans. no (0)

----------
system: U-87 MG; assay: Antiproliferative activity against human U-87 MG cells assessed as growth inhibition incubated for 72 hrs by CCK-8 assay; assay type: functional, cell-based, U-87MG ATCC
Reported endpoint: pIC50
Notebook: values listed as pIC50 are -log10 of the concentration (mol/L).

So, COc1cc(Nc2ccccc2C(=O)NCCc2c[nH]c3ccccc23)cc(OC)c1OC ? Its pIC50 was 5.32

The compound listed as Cc1cccc(Nc2ccccc2C(=O)NCCc2c[nH]c3ccccc23)c1 has a reported pIC50 of 4.63

// data source = ChEMBL document CHEMBL4825684
